Origin of measurements: paper PMC5540273

# System: PIP5K2C
# Construct: gene PIP4K2C
# condition.description: concentration: 1 μM, replicates: in singlicate; n = 1;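 also: KINOMEscan kinase panel screen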
metric: %Inh (%)

INSERT INTO results (smiles_string, assay_value) VALUES
  ('Nc1ncnc2occ(-c3ccc4c(c3)CCN4C(=O)Cc3cc(F)ccc3F)c12', 16),
  ('CC(C)c1ccc(O)cc1Nc1ccnc2ccc(C(F)(F)F)cc12', 0),
  ('CS(=O)(=O)CCNCc1nc(-c2ccc3ncnc(Nc4ccc(OCc5ccccc5)c(Cl)c4)c3c2)cs1.Cl', 56),
  ('Cc1ccc(-c2nc(Nc3ccncc3)c3ccccc3n2)s1', 1);

* * *

%Inh values for the compounds below.
# Test system: RSK3(Kin.Dom.1-N-terminal)
# Construct: gene RPS6KA2
# condition.description: concentration: 1 μM, replicates: in singlicate; n = 1
metric: %Inh (%)

INSERT INTO results (compound, metric, uom, assay_value) VALUES
  ('O=C1NC(=O)C(c2ccc(Cl)cc2)=C1Nc1ccc(O)cc1', '%Inh', '%', 0),
  ('CS(=O)(=O)Cc1ccc(Nc2nccc(-c3c(-c4cccc(NC(=O)C5CCCCC5)c4)nn4ncccc34)n2)cc1', '%Inh', '%', 12),
  ('COc1ccc(Nc2nccc(NCCNC(=O)Nc3cc(C)ccc3C)n2)cc1', '%Inh', '%', 0),
  ('CCn1c(-c2c(N)noc2C)nc2cnccc21', '%Inh', '%', 15),
  ('O=c1cc(N2CCOCC2)nc2n(Cc3cccc(Cl)c3Cl)c3ccccc3n12', '%Inh', '%', 4),
  ('COc1ccc(-c2coc3ccc(-c4nnc(C)o4)cc23)cc1', '%Inh', '%', 0),
  ('O=C1NC(=O)C(c2ccc(Cl)cc2)=C1Nc1cccc(Cl)c1', '%Inh', '%', 18),
  ('CC(=O)c1cccc(NC(=O)NC2CCN(c3ccnc(Nc4ccc(F)cc4)n3)C2)c1 (stereo not drawn)', '%Inh', '%', 17),
  ('O=C(Nc1n[nH]c2nc(-c3cccs3)c(Br)cc12)C1CC1', '%Inh', '%', 0);

* * *

# Tested on: AURKB
# condition.description: concentration: 1 μM, replicates: in singlicate; n = 1
metric: %Inh (%)

INSERT INTO results (compound, test_target, uom, assay_value) VALUES
  ('COc1nccc(-c2c(-c3ccc(F)cc3)ncn2CCCN2CCOCC2)n1', 'AURKB', '%', 42),
  ('Cc1c(Cn2c(C)c(C)n3c(=O)cc(N4CCOCC4)nc23)cccc1C(F)(F)F', 'AURKB', '%', 0),
  ('O=C1NC(=O)C(c2ccc(Cl)cc2)=C1Nc1ccc(O)cc1', 'AURKB', '%', 9),
  ('CS(=O)(=O)CCNCc1nc(-c2ccc3ncnc(Nc4ccc5c(cnn5Cc5ccccc5)c4)c3c2)cs1.Cl.Cl', 'AURKB', '%', 29),
  ('COc1ccc(CSc2nnc(-c3ccc4nccn4c3)o2)cc1C(F)(F)F', 'AURKB', '%', 22),
  ('CSc1ccc(-c2nc3n(c2-c2ccncc2)CCC3)cc1', 'AURKB', '%', 0),
  ('COc1ccc(Nc2nccc(N3CCC(NC(=O)c4cc5ccccc5s4)C3)n2)cc1 (stereo not drawn)', 'AURKB', '%', 0),
  ('CNCc1ccc2nc(NC(=O)c3ccc(C(C)(C)C)cc3)cn2c1', 'AURKB', '%', 22),
  ('O=C(Nc1n[nH]c2nc(-c3ccco3)c(Br)cc12)C1CCN(Cc2ccccc2)C1.O=C(O)[C@H](O)[C@@H](O)C(=O)O (stereo not drawn)', 'AURKB', '%', 17),
  ('COc1ccc(Nc2nccc(N3CCC(NC(=O)C(C)c4ccc(Cl)cc4)C3)n2)cc1 (stereo not drawn)', 'AURKB', '%', 24),
  ('CC[C@@H]1CO[C@H](C(=O)Nc2ccccc2)CN1c1cc(-c2ccc3c(N)n[nH]c3c2)nc(NC)n1', 'AURKB', '%', 0),
  ('CNc1nc(-c2ccc3c(N)n[nH]c3c2)cc(N2C[C@@H](C(=O)NC3CCCCC3)OC[C@H]2C)n1', 'AURKB', '%', 16),
  ('CS(=O)(=O)CCNCc1nc(-c2ccc3ncnc(Nc4ccc(OCc5ccccc5)c(Cl)c4)c3c2)cs1.Cl', 'AURKB', '%', 23),
  ('Cc1ccc(-c2nc(Nc3ccncc3)c3ccccc3n2)s1', 'AURKB', '%', 0),
  ('Nc1cccc(-c2ccc3c(N)n[nH]c3c2)n1', 'AURKB', '%', 15),
  ('CCCCc1nn2ncccc2c1-c1ccnc(NC2CC2)n1', 'AURKB', '%', 12),
  ('CCc1ccc(-c2ccc3c(c2)-c2n[nH]cc2S(=O)(=O)N3C)cc1', 'AURKB', '%', 0),
  ('COc1ccc2cc(-c3nc(-c4ccccc4C(C)C)[nH]c3-c3ccncc3)ccc2c1', 'AURKB', '%', 30),
  ('CN1c2ccc(-c3ccc(C(N)=O)cc3)cc2-c2[nH]ncc2S1(=O)=O', 'AURKB', '%', 21),
  ('COc1ccc(CSc2nnc(-c3ccc4ncsc4c3)o2)cc1C(F)(F)F', 'AURKB', '%', 13),
  ('COc1ccc(Nc2nccc(N3CCC(NC(=O)C(C)c4ccc(Cl)cc4)CC3)n2)cc1 (stereo not drawn)', 'AURKB', '%', 4),
  ('Nc1ncnc2occ(-c3ccc4c(c3)CCN4C(=O)Cc3cc(F)ccc3F)c12', 'AURKB', '%', 48),
  ('Cc1ccc(NC(=O)Nc2ccccc2F)cc1-c1ccc(C(=O)Nc2ccncc2)cc1', 'AURKB', '%', 0),
  ('COC(=O)C(Cc1ccccc1)NC(=O)NC1CCN(c2ccnc(Nc3ccc(F)cc3)n2)C1 (stereo not drawn)', 'AURKB', '%', 11),
  ('Cc1ccccc1-c1cc(-c2c[nH]nc2-c2ccccn2)ccn1', 'AURKB', '%', 4),
  ('COc1cccc(CNC(=O)NC2CCN(c3ccnc(Nc4ccc(F)cc4)n3)C2)c1 (stereo not drawn)', 'AURKB', '%', 37),
  ('O=C(Nc1n[nH]c2nc(-c3cccs3)c(Br)cc12)C1CC1', 'AURKB', '%', 31),
  ('COc1cccc(NC(=O)Nc2ccc(C)c(-c3ccc(C(=O)Nc4ccncc4)cc3)c2)c1', 'AURKB', '%', 0),
  ('Cn1cncc1-c1cc2c(Nc3ccc(OCc4ccccc4)cc3)ncnc2cn1', 'AURKB', '%', 25),
  ('CC(=O)c1c(C)c2cnc(Nc3ccn(C)n3)nc2n(C2CCCC2)c1=O', 'AURKB', '%', 0),
  ('CC(=O)c1c(C)c2cnc(Nc3ccc(N4CCNCC4)cn3)nc2n(C2CCCC2)c1=O', 'AURKB', '%', 0),
  ('COc1cc2ncnc(Nc3cccc(Br)c3)c2cc1OC.Cl', 'AURKB', '%', 0),
  ('O=c1cc(N2CCOCC2)nc2n(Cc3cccc(Cl)c3Cl)c3ccccc3n12', 'AURKB', '%', 7),
  ('Fc1ccc(-c2nc[nH]c2-c2ccncc2)cc1', 'AURKB', '%', 33),
  ('CNc1cc(-c2ccc3c(N)n[nH]c3c2)nc(N)n1', 'AURKB', '%', 0),
  ('Cn1cncc1C(=O)NC1CCN(c2ccnc(Nc3ccc(F)cc3)n2)C1 (stereo not drawn)', 'AURKB', '%', 23);
